B1: Pistol ribozyme (parent)
chain: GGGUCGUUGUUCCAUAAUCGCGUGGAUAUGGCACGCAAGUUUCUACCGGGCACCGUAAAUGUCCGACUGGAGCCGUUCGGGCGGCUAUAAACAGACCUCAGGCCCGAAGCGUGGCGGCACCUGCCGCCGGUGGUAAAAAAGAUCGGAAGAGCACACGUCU

Variants of: B1
Assay: aptazyme ON/OFF ratio, guanine; higher = stronger switching; co-transcriptional cleavage with and without guanine
Would you kindly list aptazyme ON/OFF ratio for each of these variants?
Would you mind answering with just the numeric figure?

Request: Could you please provide reported aptazyme ON/OFF ratio for U8C G9A U10A U11A C12G C13G ? Thanks!
Response: 1.17

Request: Could you please provide reported aptazyme ON/OFF ratio for U8G G9A U10G C12G C13U ? Thanks!
Response: 1.27

Request: Could you please provide reported aptazyme ON/OFF ratio for U7C U8G G9C U10G C12A C13U ? Thanks!
Response: 1.26

Request: Could you please provide reported aptazyme ON/OFF ratio for U8A G9U U11C C12U C13G ? Thanks!
Response: 1.06

Request: Could you please provide reported aptazyme ON/OFF ratio for U7C U8A G9U U10G U11A C13U ? Thanks!
Response: 1.03

Request: Could you please provide reported aptazyme ON/OFF ratio for U7C U8C G9U U10C U11G C12A C13G ? Thanks!
Response: 1.11

Request: Could you please provide reported aptazyme ON/OFF ratio for U8G G9C U10C U11A C12A C13U ? Thanks!
Response: 1.05

Request: Could you please provide reported aptazyme ON/OFF ratio for U10G U11A C12U C13G ? Thanks!
Response: 1.2

Request: Could you please provide reported aptazyme ON/OFF ratio for U7C U8C G9A U10C C13U ? Thanks!
Response: 1.52

Request: Could you please provide reported aptazyme ON/OFF ratio for U7A U8G G9A U10A U11A C12U C13G ? Thanks!
Response: 1.29

Request: Could you please provide reported aptazyme ON/OFF ratio for U8G U10G U11C C12U C13A ? Thanks!
Response: 1.06

Request: Could you please provide reported aptazyme ON/OFF ratio for U8G U10A C13A ? Thanks!
Response: 1.14

Request: Could you please provide reported aptazyme ON/OFF ratio for U8C G9U U10A U11C C12A C13A ? Thanks!
Response: 1.33

Request: Could you please provide reported aptazyme ON/OFF ratio for U7A G9C U10G C12G C13A ? Thanks!
Response: 1.07

Request: Could you please provide reported aptazyme ON/OFF ratio for U7A U8G U11A C12G ? Thanks!
Response: 1.2

Request: Could you please provide reported aptazyme ON/OFF ratio for U8G U11C C13A ? Thanks!
Response: 1.19

Request: Could you please provide reported aptazyme ON/OFF ratio for U8C G9U U10G U11G C12G ? Thanks!
Response: 1.18

Request: Could you please provide reported aptazyme ON/OFF ratio for U7A U8G G9C U10G C12A C13U ? Thanks!
Response: 1.56

Request: Could you please provide reported aptazyme ON/OFF ratio for U8C G9A U10G C12U ? Thanks!
Response: 1.36

Request: Could you please provide reported aptazyme ON/OFF ratio for U8A G9A U11C C12G ? Thanks!
Response: 1.17

Request: Could you please provide reported aptazyme ON/OFF ratio for U8C G9A U10C U11C C12A ? Thanks!
Response: 1.17

Request: Could you please provide reported aptazyme ON/OFF ratio for U7C U8G U10C U11A C12G C13U ? Thanks!
Response: 1.08

Reference for the values: the RNAGym collection of RNA variant scans (doi:10.1021/acssynbio.7b00057)
